Data provenance: ChEMBL document CHEMBL4190232

// pIC50 lookup, one value per entry
- System: MDA-MB-231
- assay procedure: Cytotoxicity against human MDA-MB-231 cells assessed as reduction in cell viability after 72 hrs by alamarBlue assay
- Type: functional, cell-based
- assay context: MDA-MB-231, 72 h
pIC50: −log10 of the molar value.
readout type: pIC50

INSERT INTO assay_data (smiles_structure, target_or_system, comparison_operator, endpoint_result) VALUES
  ('COc1ccc(-c2coc3cc(OCC=C(C)C)ccc3c2=O)cc1', 'MDA-MB-231', '=', 4.48),
  ('COc1cc2c(cc1-c1coc3c(CC=C(C)C)c(OC)c(OC)cc3c1=O)OCO2', 'MDA-MB-231', '<', 3.63),
  ('CC(C)=CCOc1ccc2c(=O)c(-c3ccc4c(c3)OCO4)coc2c1', 'MDA-MB-231', '=', 3.81),
  ('COc1ccc2c(c1)O[C@@H]1COc3cc4c(cc3[C@@H]1C2=O)OCO4', 'MDA-MB-231', '=', 4.03),
  ('COc1ccc2c(=O)c(-c3cc(OC)c4c(c3OC)OCO4)coc2c1', 'MDA-MB-231', '=', 3.78);
